# System: NCI-H1299 (Non-Small Cell Lung Carcinoma)
# ASSAY: Bliss excess, mean over the matrix (fraction); higher = more synergy
PROPERTY NAME: Bliss excess
Answers are plain numbers.

Consider the following illustrative entries.
{"columns": ["MOLECULE", "Bliss excess"],
 "data": [
  ["CC1(C)CCC(CN2CCN(c3ccc(C(=O)NS(=O)(=O)c4ccc(NCC5CCOCC5)c([N+](=O)[O-])c4)c(Oc4cnc5[nH]ccc5c4)c3)CC2)=C(c2ccc(Cl)cc2)C1 [Venetoclax] + Cn1cnc2c(F)c(Nc3ccc(Br)cc3Cl)c(C(=O)NOCCO)cc21 [Selumetinib] (first compound max 1 µM, 7x7, partner max 3 µM)", -0.0424],
  ["COc1cccc(OCCCN)c1-c1cc(Nc2cnc(C#N)cn2)n[nH]1 [Prexasertib] + O=C(c1cc(Cc2n[nH]c(=O)c3ccccc23)ccc1F)N1CCN(C(=O)C2CC2)CC1 [Olaparib] (first compound max 1 µM, 7x7, partner max 10 µM)", -0.0694]
]}

input: Fill in Bliss excess for record Cc1c2c(nn1C)CSCc1cc(n(C)n1)CSc1cc(c3ccccc3c1)OCCCc1c(C(=O)O)n(C)c3c-2c(Cl)ccc13 [AZD5991] + CN(C)CCCOc1ccc(-c2ccc3ncc4c(c3c2)n(C2CCOCC2)c(=O)n4C)cn1 [AZD0156] (first compound max 1 µM, 7x7, partner max 1 µM)
output: 0.0163

====

# Tested on: DB (B-Cell Non-Hodgkin's Lymphoma)
# ASSAY: combination Emax (second highest fraction inhibited in the dose matrix, 72 h); higher = more inhibition; extreme values may be limits of the assay
PROPERTY NAME: combination Emax
Numbers only.

{"columns": ["COMPOUND", "MEASUREMENT TARGET", "REPORTED MEASUREMENT"],
 "data": [
  ["C[C@@H](c1ccc2nccn2c1)n1nnc2ncc(-c3cnn(C)c3)nc21 [Savolitinib] + Cc1c2c(nn1C)CSCc1cc(n(C)n1)CSc1cc(c3ccccc3c1)OCCCc1c(C(=O)O)n(C)c3c-2c(Cl)ccc13 [AZD5991] (first compound max 1 µM, 7x7, partner max 1 µM)", "DB (B-Cell Non-Hodgkin's Lymphoma)", 0.986]
]}

Moving on to the next compound.
input: Give reported combination Emax value for CC1(C)CCC(CN2CCN(c3ccc(C(=O)NS(=O)(=O)c4ccc(NCC5CCOCC5)c([N+](=O)[O-])c4)c(Oc4cnc5[nH]ccc5c4)c3)CC2)=C(c2ccc(Cl)cc2)C1 [Venetoclax] + CS(=O)(=O)CCNCc1ccc(-c2ccc3ncnc(Nc4ccc(OCc5cccc(F)c5)c(Cl)c4)c3c2)o1 [Lapatinib] (first compound max 1 µM, 7x7, partner max 10 µM)
output: 0.949

====

# Test system: IHH-4 (Thyroid Gland Carcinoma)
# ASSAY: combination Emax (second highest fraction inhibited in the dose matrix, 72 h); higher = more inhibition; extreme values may be limits of the assay
Please go through the items and note down their combination Emax.

List reported combination Emax for each of these compounds:
1. Cc1c2c(nn1C)CSCc1cc(n(C)n1)CSc1cc(c3ccccc3c1)OCCCc1c(C(=O)O)n(C)c3c-2c(Cl)ccc13 [AZD5991] + Cn1cnc2c(F)c(Nc3ccc(Br)cc3Cl)c(C(=O)NOCCO)cc21 [Selumetinib] (first compound max 1 µM, 7x7, partner max 3 µM)
2. CCc1c2c(nc3ccc(O)cc13)-c1cc3c(c(=O)n1C2)COC(=O)[C@]3(O)CC [SN-38] + O=C(c1cc(Cc2n[nH]c(=O)c3ccccc23)ccc1F)N1CCN(C(=O)C2CC2)CC1 [Olaparib] (first compound max 0.3 µM, 7x7, partner max 10 µM)

output:
1: 0.385; 2: 0.921

====

Consider the following compounds; for each one, report its Bliss excess.
# Test system: LU-99A (Non-Small Cell Lung Carcinoma)
# ASSAY: Bliss excess, mean over the matrix (fraction); higher = more synergy

Worked cases, Bliss excess given:
{"columns": ["COMPOUND", "Bliss excess"],
 "data": [
  ["CCN(CCO)CCCOc1ccc2c(Nc3cc(CC(=O)Nc4cccc(F)c4)[nH]n3)ncnc2c1 [AZD2811] + C[C@@H]1COCCN1C2=NC(=NC(=C2)C3(CC3)[S@](=N)(=O)C)C4=C5C=CNC5=NC=C4 [AZD6738] (first compound max 1 µM, 7x7, partner max 10 µM)", -0.0732],
  ["CC(=O)c1c(C)c2cnc(Nc3ccc(N4CCNCC4)cn3)nc2n(C2CCCC2)c1=O [Palbociclib] + Cc1c2c(nn1C)CSCc1cc(n(C)n1)CSc1cc(c3ccccc3c1)OCCCc1c(C(=O)O)n(C)c3c-2c(Cl)ccc13 [AZD5991] (first compound max 10 µM, 7x7, partner max 1 µM)", -0.046],
  ["NC1(C(=O)N[C@@H](CCO)c2ccc(Cl)cc2)CCN(c2ncnc3[nH]ccc23)CC1 [Capivasertib] + C[C@@H]1COCCN1C2=NC(=NC(=C2)C3(CC3)[S@](=N)(=O)C)C4=C5C=CNC5=NC=C4 [AZD6738] (first compound max 10 µM, 7x7, partner max 10 µM)", -0.0059]
]}

Let us move to another entry and its Bliss excess.
input: Report Bliss excess, nothing else, for this compound: NC1(C(=O)N[C@@H](CCO)c2ccc(Cl)cc2)CCN(c2ncnc3[nH]ccc23)CC1 [Capivasertib] + COc1nnc2ccc(N3CCC(c4ccc(OCCN5CCN(C)C(=O)[C@H]5C)cc4)CC3)nn12 [AZD5153] (first compound max 10 µM, 7x7, partner max 1 µM)
output: 0

====

# Test system: IHH-4 (Thyroid Gland Carcinoma)
# ASSAY: Bliss excess, mean over the matrix (fraction); higher = more synergy
PROPERTY NAME: Bliss excess
Numbers only.

Known results for molecules:
{"columns": ["MOLECULE", "Bliss excess"],
 "data": [
  ["O=C(c1cc(Cc2n[nH]c(=O)c3ccccc23)ccc1F)N1CCN(C(=O)C2CC2)CC1 [Olaparib] + CN(CC[C@H](CSC1=CC=CC=C1)NC2=C(C=C(C=C2)S(=O)(=O)NC(=O)C3=CC=C(C=C3)N4CCC(CC4)[C@H](C5=CC=CC=C5C6=CC=C(C=C6)Cl)O)S(=O)(=O)C(F)(F)F)CCO [AZD4320] (first compound max 10 µM, 7x7, partner max 1 µM)", -0.0368],
  ["C[C@@H]1COCCN1c1cc(C2([S@](C)(=N)=O)CC2)nc(-c2ccnc3[nH]ccc23)n1 [AZD6738] + O=C(c1cc(Cc2n[nH]c(=O)c3ccccc23)ccc1F)N1CCN(C(=O)C2CC2)CC1 [Olaparib] (first compound max 10 µM, 7x7, partner max 10 µM)", 0.0506]
]}

Now, please, on to the next molecule.
input: Answer with the recorded Bliss excess for the molecule listed here: Cc1cc2ncnn2cc1Nc1ncc2c(n1)n(C1CCOCC1)c(=O)n2C [AZD7648] + CCN(CCO)CCCOc1ccc2c(Nc3cc(CC(=O)Nc4cccc(F)c4)[nH]n3)ncnc2c1 [AZD2811] (first compound max 10 µM, 7x7, partner max 1 µM)
output: 0.0429

====

# System: NALM-6 (B-Lymphoblastic Leukemia)
# ASSAY: combination Emax (second highest fraction inhibited in the dose matrix, 72 h); higher = more inhibition; extreme values may be limits of the assay
Record form. Attribute: combination Emax. Fill in for each entry.
Give bare numbers.

Consider the reported combination Emax for these molecules:
{"columns": ["MOLECULE", "MEASUREMENT TARGET", "combination Emax"],
 "data": [
  ["CN(CCO)CC[C@H](CSc1ccccc1)Nc1ccc(S(=O)(=O)NC(=O)c2ccc(N3CCC([C@@H](O)c4ccccc4-c4ccc(Cl)cc4)CC3)cc2)cc1S(=O)(=O)C(F)(F)F [AZD4320] + CS(=O)(=O)CCNCc1ccc(-c2ccc3ncnc(Nc4ccc(OCc5cccc(F)c5)c(Cl)c4)c3c2)o1 [Lapatinib] (first compound max 1 µM, 7x7, partner max 10 µM)", "NALM-6 (B-Lymphoblastic Leukemia)", 1],
  ["CN(C)CCCOc1ccc(-c2ccc3ncc4c(c3c2)n(C2CCOCC2)c(=O)n4C)cn1 [AZD0156] + C[C@@H]1COCCN1C2=NC(=NC(=C2)C3(CC3)[S@](=N)(=O)C)C4=C5C=CNC5=NC=C4 [AZD6738] (first compound max 1 µM, 7x7, partner max 10 µM)", "NALM-6 (B-Lymphoblastic Leukemia)", 0.903],
  ["CN(CCO)CC[C@H](CSc1ccccc1)Nc1ccc(S(=O)(=O)NC(=O)c2ccc(N3CCC([C@@H](O)c4ccccc4-c4ccc(Cl)cc4)CC3)cc2)cc1S(=O)(=O)C(F)(F)F [AZD4320] + Cc1cc2ncnn2cc1Nc1ncc2c(n1)n(C1CCOCC1)c(=O)n2C [AZD7648] (first compound max 1 µM, 7x7, partner max 10 µM)", "NALM-6 (B-Lymphoblastic Leukemia)", 0.975],
  ["Cc1c2c(nn1C)CSCc1cc(n(C)n1)CSc1cc(c3ccccc3c1)OCCCc1c(C(=O)O)n(C)c3c-2c(Cl)ccc13 [AZD5991] + CC1(C)CCC(CN2CCN(c3ccc(C(=O)NS(=O)(=O)c4ccc(NCC5CCOCC5)c([N+](=O)[O-])c4)c(Oc4cnc5[nH]ccc5c4)c3)CC2)=C(c2ccc(Cl)cc2)C1 [Venetoclax] (first compound max 1 µM, 7x7, partner max 1 µM)", "NALM-6 (B-Lymphoblastic Leukemia)", 0.949],
  ["CCc1c2c(nc3ccc(O)cc13)-c1cc3c(c(=O)n1C2)COC(=O)[C@]3(O)CC [SN-38] + CN(C)CCCOc1ccc(-c2ccc3ncc4c(c3c2)n(C2CCOCC2)c(=O)n4C)cn1 [AZD0156] (first compound max 0.3 µM, 7x7, partner max 1 µM)", "NALM-6 (B-Lymphoblastic Leukemia)", 1]
]}

input: Answer with the recorded combination Emax of Cc1c2c(nn1C)CSCc1cc(n(C)n1)CSc1cc(c3ccccc3c1)OCCCc1c(C(=O)O)n(C)c3c-2c(Cl)ccc13 [AZD5991] + Cn1cnc2c(F)c(Nc3ccc(Br)cc3Cl)c(C(=O)NOCCO)cc21 [Selumetinib] (first compound max 1 µM, 7x7, partner max 3 µM) only.
output: 0.369
